Data origin, for the record: patent US20090317363A1

Assayed Target: CCR5 (UniProt P51681)
Assay Summary: cell-based or functional assay
Reported Metric: CCR5 signalling (%) (% of Emax of PSC-RANTES)
Simply state the number, no unit and no words.

Solved entries:
Binder: RANTES derivative: signature sequence SEQ ID NO: 14 fused to positions 10-68 of native RANTES (SEQ ID NO: 1) (ligand) QGPLLMWLQVCCFAYIARPLPRAHIKEYFYTSGKCSNPAVVFVTRKNRQVCANPEKKWVREYINSLEMS
Endpoint Result: 1.4
--
Binder: RANTES derivative: signature sequence SEQ ID NO: 54 fused to positions 10-68 of native RANTES (SEQ ID NO: 1) (ligand) QGPPGQWGQVCCFAYIARPLPRAHIKEYFYTSGKCSNPAVVFVTRKNRQVCANPEKKWVREYINSLEMS
Endpoint Result: 2.1
--
Binder: RANTES derivative: signature sequence SEQ ID NO: 68 fused to positions 10-68 of native RANTES (SEQ ID NO: 1) (ligand) QGPPLMSGQSCCFAYIARPLPRAHIKEYFYTSGKCSNPAVVFVTRKNRQVCANPEKKWVREYINSLEMS
Endpoint Result: 10.6

Consider the record given below.
Req: Could you share which CCR5 signalling (%) (% of Emax of PSC-RANTES) value was measured for RANTES derivative: signature sequence SEQ ID NO: 36 fused to positions 10-68 of native RANTES (SEQ ID NO: 1) (ligand) QGPPLQWRQSCCFAYIARPLPRAHIKEYFYTSGKCSNPAVVFVTRKNRQVCANPEKKWVREYINSLEMS ?
Resp: 5.1
